Where do these numbers come from? They come from patent US8673552B2.

target.desc: trimeric, post-fusion form of sE (dengue envelope protein E, residues 1-395) (Dengue virus type 2)
Construct: post-fusion form of sE, the fragment of E spanning residues 1-395; purchased Hawaii Biotech (Hawaii Biotechnology Group, Inc., Aiea, Hi.); host or cells: Drosophila melanogaster Schneider 2 cells (pMtt vector, prM-E preprotein processed during secretion)
experimental.details: fluorescence depolarization binding of stem peptides to sE trimer
Ends that are not written are not given here.
property.measured: Kd

| entry.sequence | measured |
| --- | --- |
| AILGDTAWDFGSLGGVFTSIGKALHQVFGAIYGAA [413-447] | ~4 µM |
